Subject Of Test: AgLsb4
Experiment Description: SPOT peptide array binding signal intensity (averaged, normalized) (arbitrary units (background-subtracted, floor 0; scale differs between SH3 domains)); higher = stronger binding of the SH3 domain to the peptide
Quantity Kind: SPOT peptide array binding signal intensity
Returns: the value as a bare number; no unit string appended.

[[record]]
binder = "PAPPPPPRASRPTPN"
quantitative_result = 185

[[record]]
binder = "GATNNAPTLPKRKNP"
quantitative_result = 2730


Next binder, SPOT peptide array binding signal intensity to be filled in.
Query string: Item RLSFFFPLDPAYIRN has what recorded SPOT peptide array binding signal intensity?
Result string: 152
